Structures can show the parent of a compound that is named as a salt.

>  <molecule>
Cc1cc(C)cc(Oc2ccc([N+](=O)[O-])cc2S(=O)(=O)N2CCN(C3CCCCC3)CC2)c1 [Example 4-6]

>  <melting point>
190 to 192 °C

$$$$
>  <molecule>
Cc1cc(O)cc(Oc2ccc([N+](=O)[O-])cc2S(=O)(=O)N2CCNCC2)c1.Cl [Example 1-71]

>  <melting point>
182 °C

$$$$
>  <molecule>
O=[N+]([O-])c1ccc(Sc2cc(Cl)cc(Cl)c2)c(S(=O)(=O)N2CCN(CC3CCCO3)CC2)c1 (stereo not shown) [Example 2-2]

>  <melting point>
147 to 148 °C

$$$$
>  <molecule>
N#Cc1ccc(Oc2cc(Cl)cc(Cl)c2)c(S(=O)(=O)N2CC[C@H](N)C2)c1 (as salt: hydrochloride) [Example 13-1]

>  <melting point>
276 °C

$$$$
>  <molecule>
Cc1cc(C)cc(Oc2cc(C)ccc2S(=O)(=O)N2CCNCC2)c1.Cl [Example 1-52]

>  <melting point>
136 °C

$$$$
>  <molecule>
CN(C)CCN1CCN(S(=O)(=O)c2cc([N+](=O)[O-])ccc2Oc2cc(Cl)cc(Cl)c2)CC1 [Example 4-31]

>  <melting point>
138 to 140 °C

$$$$
>  <molecule>
N#Cc1ccc(Oc2cc(Cl)cc(Cl)c2)c(S(=O)(=O)N2C[C@H]3C[C@@H]2CN3)c1 [Example 13-4]

>  <melting point>
311 to 312 °C

$$$$

---

Here, each record is paired with measured melting point data.
Where a name gives a salt, the structure may show the parent alone.

>  <molecule>
O=[N+]([O-])c1ccc(Oc2ccccc2F)c(S(=O)(=O)N2CCNCC2)c1 [Example 1-14]

>  <melting point>
118 to 120 °C

$$$$
>  <molecule>
Cc1cc(Oc2ccc([N+](=O)[O-])cc2S(=O)(=O)N2CCNCC2)cc(C)c1Cl [Example 1-79]

>  <melting point>
178 to 179 °C

$$$$
>  <molecule>
CN(c1cc(Cl)cc(Cl)c1)c1ccc(C#N)cc1S(=O)(=O)N1CCNCC1 (as salt: hydrochloride) [Example 21-1]

>  <melting point>
163 °C

$$$$
>  <molecule>
Cc1cc(C)cc(Oc2ccc([N+](=O)[O-])cc2S(=O)(=O)N2CCC(N3CCCC3)CC2)c1 [Example 4-11]

>  <melting point>
156 to 158 °C

$$$$
>  <molecule>
Cc1cc(C)cc(Oc2ccc([N+](=O)[O-])cc2S(=O)(=O)N2CCN(CCO)CC2)c1 [Example 1-88]

>  <melting point>
163 to 164 °C

$$$$
>  <molecule>
CN(CCN1CCCCC1)S(=O)(=O)c1cc([N+](=O)[O-])ccc1Sc1cc(Cl)cc(Cl)c1 [Example 26-1]

>  <melting point>
113 to 114 °C

$$$$
>  <molecule>
Cl.N#Cc1cccc(Oc2ccc([N+](=O)[O-])cc2S(=O)(=O)N2CCNCC2)c1 [Example 1-10]

>  <melting point>
265 to 267 °C

$$$$

---

Counter-ions that a name gives are not always drawn.

>  <compound>
Cl.O=[N+]([O-])c1ccc(Oc2cc(Cl)cc(Cl)c2Cl)c(S(=O)(=O)N2CCNCC2)c1 [Example 1-86]

>  <melting point>
188 to 189 °C

$$$$
>  <compound>
O=[N+]([O-])c1ccc(Oc2cc(Cl)cc(Cl)c2)c(S(=O)(=O)N2CCC(N3CCCCC3)CC2)c1 [Example 4-29]

>  <melting point>
173 to 174 °C

$$$$
>  <compound>
Cc1cc(C)cc(Oc2cc(Br)cc(S(=O)(=O)N3CCNCC3)c2)c1 (as salt: hydrochloride) [Example 24-1]

>  <melting point>
> 84 °C (dec.)

$$$$
>  <compound>
O=[N+]([O-])c1ccc(Oc2cccc(Cl)c2Cl)c(S(=O)(=O)N2CCNCC2)c1 [Example 1-82]

>  <melting point>
173 to 174 °C

$$$$
>  <compound>
Cc1cc(C)cc(Oc2ccc([N+](=O)[O-])cc2S(=O)(=O)N2CC[C@@H](N(C)C)C2)c1 [Example 4-13]

>  <melting point>
115 to 116 °C

$$$$
>  <compound>
Cc1cc(C)cc(Oc2ccc([N+](=O)[O-])cc2S(=O)(=O)N2CCN(C3CCCC3)CC2)c1 [Example 4-19]

>  <melting point>
169 to 171 °C

$$$$
>  <compound>
Cl.O=S(=O)(c1cc(Br)ccc1Oc1cc(Cl)cc(Cl)c1)N1CCNCC1 [Example 1-57]

>  <melting point>
269 to 271 °C

$$$$
>  <compound>
O=[N+]([O-])c1ccc(Oc2cc(Br)cc(Br)c2)c(S(=O)(=O)N2CCNCC2)c1 [Example 1-76]

>  <melting point>
205 °C

$$$$
>  <compound>
CCN(CC)C1CCN(S(=O)(=O)c2cc([N+](=O)[O-])ccc2Oc2cc(Cl)cc(Cl)c2)C1 (stereo not drawn) [Example 4-21]

>  <melting point>
120 to 121 °C

$$$$
>  <compound>
COc1cc(OC)cc(Oc2ccc([N+](=O)[O-])cc2S(=O)(=O)N2CCNCC2)c1.Cl [Example 1-5]

>  <melting point>
211 to 213 °C

$$$$
>  <compound>
Cc1cc(C)cc(Oc2ccc(N)cc2S(=O)(=O)N2CCNCC2)c1.O=C(O)C(F)(F)F [Example 5-3]

>  <melting point>
133 to 135 °C

$$$$
>  <compound>
Cl.O=[N+]([O-])c1ccc(Sc2cccc(Cl)c2)c(S(=O)(=O)N2CCNCC2)c1 [Example 2-17]

>  <melting point>
235 to 237 °C

$$$$
>  <compound>
NCC1CCN(S(=O)(=O)c2cc([N+](=O)[O-])ccc2Oc2cc(Cl)cc(Cl)c2)CC1 [Example 1-97]

>  <melting point>
148 to 151 °C

$$$$
>  <compound>
CN(C)CCN(C)S(=O)(=O)c1cc([N+](=O)[O-])ccc1Oc1cc(Cl)cc(Cl)c1 [Example 4-20]

>  <melting point>
105 to 107 °C

$$$$
>  <compound>
Cc1cc(C)cc(Oc2ccc([N+](=O)[O-])cc2S(=O)(=O)N(C)CCN(C)C)c1 [Example 4-14]

>  <melting point>
75 to 77 °C

$$$$
>  <compound>
Cl.O=[N+]([O-])c1ccc(Sc2cc(C(F)(F)F)cc(C(F)(F)F)c2)c(S(=O)(=O)N2CCNCC2)c1 [Example 2-20]

>  <melting point>
230 to 231 °C

$$$$
>  <compound>
Cc1cc(C)cc(Oc2ccc([N+](=O)[O-])cc2S(=O)(=O)N2CCNCC2)c1.O=C(O)C(F)(F)F [Example 1-3]

>  <melting point>
120 to 125 °C

$$$$
>  <compound>
Cl.O=[N+]([O-])c1ccc(Sc2cc(Cl)cc(Cl)c2)c(S(=O)(=O)NCC2CCNCC2)c1 [Example 2-8]

>  <melting point>
205 to 207 °C

$$$$

---

experimental-system: Human CCR3 (Homo sapiens, UniProt P51677)
Construct: The cloned CCR3 cDNA was constructed with pcDNA3 vector and transfected into a IC562 cell line; expressed in transfected cells
Sequence (P51677 whole entry): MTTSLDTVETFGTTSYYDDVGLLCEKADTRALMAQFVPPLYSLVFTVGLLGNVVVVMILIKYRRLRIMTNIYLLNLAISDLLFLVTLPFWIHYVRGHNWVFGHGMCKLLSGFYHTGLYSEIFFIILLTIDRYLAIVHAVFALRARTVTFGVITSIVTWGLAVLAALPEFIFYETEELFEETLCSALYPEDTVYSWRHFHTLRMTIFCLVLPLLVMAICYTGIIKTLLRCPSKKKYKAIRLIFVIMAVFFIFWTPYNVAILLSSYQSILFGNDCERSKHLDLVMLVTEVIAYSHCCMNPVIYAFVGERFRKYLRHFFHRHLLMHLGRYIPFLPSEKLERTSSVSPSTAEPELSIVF
procedure-details: Calcium mobilization assay, eotaxin-stimulated
Type: cell-based
assay-conditions: human CCR3-transformed K562 cells, 10 nM eotaxin; compounds of about 40 to 90% purity; read-out: Activity grade Ca2+ (IC50 class)
Where a name gives a salt, the structure may show the parent alone.
Here, each record is paired with measured IC50 data.

>  <molecule>
COC(=O)c1cncc(Oc2ccc([N+](=O)[O-])cc2S(=O)(=O)N2CCNCC2)c1

>  <experimental-system>
Human CCR3 (Homo sapiens, UniProt P51677)

>  <IC50>
1 to 10 µM

$$$$
>  <molecule>
Cc1cc(C)cc(Oc2ccc([N+](=O)[O-])cc2S(=O)(=O)NCCN2CCOCC2)c1

>  <experimental-system>
Human CCR3 (Homo sapiens, UniProt P51677)

>  <IC50>
< 1 µM

$$$$
>  <molecule>
Cc1ccc(N2CCN(S(=O)(=O)c3cc([N+](=O)[O-])ccc3Oc3cc(C)cc(C)c3)CC2)cc1

>  <experimental-system>
Human CCR3 (Homo sapiens, UniProt P51677)

>  <IC50>
> 10 µM

$$$$
>  <molecule>
N#Cc1ccc(Nc2cc(Cl)cc(Cl)c2)c(S(=O)(=O)N2CCNCC2)c1 [Example 20-1, hydrochloride]

>  <experimental-system>
Human CCR3 (Homo sapiens, UniProt P51677)

>  <IC50>
< 1 µM

$$$$
>  <molecule>
O=[N+]([O-])c1ccc(Nc2ccccc2F)c(S(=O)(=O)N2CCNCC2)c1

>  <experimental-system>
Human CCR3 (Homo sapiens, UniProt P51677)

>  <IC50>
< 1 µM

$$$$
>  <molecule>
Cl.N[C@@H]1CCN(S(=O)(=O)c2cc([N+](=O)[O-])ccc2Sc2cc(Cl)cc(Cl)c2)C1

>  <experimental-system>
Human CCR3 (Homo sapiens, UniProt P51677)

>  <IC50>
< 1 µM

$$$$
>  <molecule>
Cc1ccc(Oc2ccc([N+](=O)[O-])cc2S(=O)(=O)N2CCNCC2)cn1.Cl

>  <experimental-system>
Human CCR3 (Homo sapiens, UniProt P51677)

>  <IC50>
< 1 µM

$$$$
>  <molecule>
Cc1cc(C)cc(Oc2ccc(Cl)cc2S(=O)(=O)N2CCNCC2)c1 [Example 5-2, hydrochloride]

>  <experimental-system>
Human CCR3 (Homo sapiens, UniProt P51677)

>  <IC50>
< 1 µM

$$$$
>  <molecule>
CCC(C)N1CCN(S(=O)(=O)c2cc([N+](=O)[O-])ccc2Oc2cc(C)cc(C)c2)CC1 (centres unmarked)

>  <experimental-system>
Human CCR3 (Homo sapiens, UniProt P51677)

>  <IC50>
< 1 µM

$$$$
>  <molecule>
Cc1cc(C)cc(Oc2cc(Br)cc(S(=O)(=O)N3CCNCC3)c2)c1 [Example 24-1, hydrochloride]

>  <experimental-system>
Human CCR3 (Homo sapiens, UniProt P51677)

>  <IC50>
< 1 µM

$$$$
>  <molecule>
O=[N+]([O-])c1ccc(Oc2cccc(F)c2)c(S(=O)(=O)N2CCNCC2)c1

>  <experimental-system>
Human CCR3 (Homo sapiens, UniProt P51677)

>  <IC50>
< 1 µM

$$$$
>  <molecule>
Cc1cc(C)cc(Oc2ccc(O)cc2S(=O)(=O)N2CCNCC2)c1 [Example 6-1, hydrochloride]

>  <experimental-system>
Human CCR3 (Homo sapiens, UniProt P51677)

>  <IC50>
> 10 µM

$$$$
>  <molecule>
Cc1ccc(C(C)C)c(Oc2ccc([N+](=O)[O-])cc2S(=O)(=O)N2CCNCC2)c1.Cl

>  <experimental-system>
Human CCR3 (Homo sapiens, UniProt P51677)

>  <IC50>
1 to 10 µM

$$$$
>  <molecule>
Cc1cc(Oc2ccc([N+](=O)[O-])cc2S(=O)(=O)N2CCNCC2)c(C(C)C)cc1Cl

>  <experimental-system>
Human CCR3 (Homo sapiens, UniProt P51677)

>  <IC50>
> 10 µM

$$$$
>  <molecule>
Cc1cc(C)cc(Oc2ccc([N+](=O)[O-])cc2S(=O)(=O)N2CC[C@@H](N(C)C)C2)c1

>  <experimental-system>
Human CCR3 (Homo sapiens, UniProt P51677)

>  <IC50>
< 1 µM

$$$$
>  <molecule>
Cc1cc(C)cc(Oc2ccc([N+](=O)[O-])cc2S(=O)(=O)N2CCN(C3CCCC3)CC2)c1

>  <experimental-system>
Human CCR3 (Homo sapiens, UniProt P51677)

>  <IC50>
< 1 µM

$$$$
>  <molecule>
Cl.N#Cc1cccc(Oc2ccc([N+](=O)[O-])cc2S(=O)(=O)N2CCNCC2)c1

>  <experimental-system>
Human CCR3 (Homo sapiens, UniProt P51677)

>  <IC50>
1 to 10 µM

$$$$
>  <molecule>
Cc1cc(C)cc(Sc2ccc([N+](=O)[O-])cc2S(=O)(=O)N2CCN(CC3CCCO3)CC2)c1 (centres unmarked)

>  <experimental-system>
Human CCR3 (Homo sapiens, UniProt P51677)

>  <IC50>
< 1 µM

$$$$
>  <molecule>
CN1CCC(N(C)S(=O)(=O)c2cc([N+](=O)[O-])ccc2Oc2cc(Cl)cc(Cl)c2)C1 (centres unmarked)

>  <experimental-system>
Human CCR3 (Homo sapiens, UniProt P51677)

>  <IC50>
< 1 µM

$$$$
>  <molecule>
N#Cc1ccc([S+]([O-])c2cc(Cl)cc(Cl)c2)c(S(=O)(=O)N2CCNCC2)c1 (centres unmarked) [Example 19-1, hydrochloride]

>  <experimental-system>
Human CCR3 (Homo sapiens, UniProt P51677)

>  <IC50>
1 to 10 µM

$$$$
>  <molecule>
O=[N+]([O-])c1ccc(Oc2cc(Cl)cc(Cl)c2)c(S(=O)(=O)N2CCC[C@H]2CN2CCCC2)c1

>  <experimental-system>
Human CCR3 (Homo sapiens, UniProt P51677)

>  <IC50>
< 1 µM

$$$$
>  <molecule>
Cl.O=[N+]([O-])c1cccc(Oc2ccc([N+](=O)[O-])cc2S(=O)(=O)N2CCNCC2)c1

>  <experimental-system>
Human CCR3 (Homo sapiens, UniProt P51677)

>  <IC50>
< 1 µM

$$$$
>  <molecule>
NCC1CCN(S(=O)(=O)c2cc([N+](=O)[O-])ccc2Oc2cc(Cl)cc(Cl)c2)CC1

>  <experimental-system>
Human CCR3 (Homo sapiens, UniProt P51677)

>  <IC50>
< 1 µM

$$$$
